# Test system: HeLa cells
# Test description: cells
# Type: cell-based
# Conditions: Homo sapiens, HeLa, S2 Table; HeLa; 20 = no response at highest concentration; read-out: CellCycle G2/M
Readout type: EC50

Task: # return recorded EC50 for entry CC(=O)Oc1ccccc1C(=O)Nc1ncc([N+](=O)[O-])s1 [nitazoxanide]
Result: > 10 µM

====

The following compounds are shown together with reported pIC50 values.
# System: SW480
# Test description: cells
# Assay type: cell-based
# Conditions: assay number 24; basal; read-out: Basal_Viability ATP SW480 summarized IC50
Conceptually, pIC50 converts a concentration in mol/L into minus its log10.

COP(=S)(OC)Oc1ccc(Sc2ccc(OP(=S)(OC)OC)cc2)cc1 [NCGC00163910-05] :: 7.93
Oc1c(I)cc(I)c2cccnc12 [NCGC00018098-07] :: 8.44
CCC(=O)c1ccc(O)cc1 [NCGC00018097-06] :: 5.39
S=c1nc[nH]c2nc[nH]c12 [NCGC00094717-06] :: 5.98

# input for lookup
Task: Specify pIC50 for CCCCOC(=O)c1ccc(N)cc1 [NCGC00016353-08] and stop.
Result: 6.23
